Source: patent US20210300943A1

Biological target: OGA (Homo sapiens)
Construct: endogenous in cells; host or cells: HEK293 cells inducible for P301L mutant human Tau (2N4R)
Sequence (O60502 1-916): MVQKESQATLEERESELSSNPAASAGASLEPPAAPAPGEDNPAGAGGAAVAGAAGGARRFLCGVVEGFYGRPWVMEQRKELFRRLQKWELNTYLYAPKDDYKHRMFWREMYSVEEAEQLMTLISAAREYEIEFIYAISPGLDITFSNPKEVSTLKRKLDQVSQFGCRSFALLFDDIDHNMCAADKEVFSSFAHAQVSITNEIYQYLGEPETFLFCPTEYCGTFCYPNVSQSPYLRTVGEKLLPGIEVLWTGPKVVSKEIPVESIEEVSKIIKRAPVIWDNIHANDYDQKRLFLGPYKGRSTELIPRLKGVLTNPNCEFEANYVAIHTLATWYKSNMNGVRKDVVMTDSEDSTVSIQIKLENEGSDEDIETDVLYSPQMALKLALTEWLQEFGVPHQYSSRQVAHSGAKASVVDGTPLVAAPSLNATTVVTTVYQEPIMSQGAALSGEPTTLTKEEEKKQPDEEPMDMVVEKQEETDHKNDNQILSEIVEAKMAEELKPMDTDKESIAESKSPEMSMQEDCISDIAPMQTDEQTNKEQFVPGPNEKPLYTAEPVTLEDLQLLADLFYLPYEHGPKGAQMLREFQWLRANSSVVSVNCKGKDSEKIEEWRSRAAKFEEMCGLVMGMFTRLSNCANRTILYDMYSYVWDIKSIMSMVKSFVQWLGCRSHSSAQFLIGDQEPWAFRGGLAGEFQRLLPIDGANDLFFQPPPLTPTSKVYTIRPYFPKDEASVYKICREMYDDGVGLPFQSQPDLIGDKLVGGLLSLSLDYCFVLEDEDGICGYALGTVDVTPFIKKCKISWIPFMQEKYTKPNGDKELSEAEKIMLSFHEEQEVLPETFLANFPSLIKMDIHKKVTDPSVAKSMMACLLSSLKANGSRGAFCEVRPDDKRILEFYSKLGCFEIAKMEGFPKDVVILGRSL
Assay: OGA cellular assay (ICC detection of O-GlcNAcylated proteins in HEK293 cells inducible for P301L mutant human Tau)
Assay type: cell-based
Conditions: HEK293, HEK293 cells inducible for P301L mutant human Tau, maximal effect; Thiamet G 200 uM as maximum
Recorded Emax for the following molecules
Report as a plain number; the unit % is understood.

Worked examples, 6 molecules total:
>>> quantitative_readout("CC(c1nc2c(cc1F)OCCO2)N1CCC[C@H](NCc2ccc(F)cc2)C1 (some centres unmarked) [Product 196]")
70
>>> quantitative_readout("Cc1cnc(OC2CCCN(C(C)c3ccc4c(n3)OCCO4)C2)c(C)n1 (centres unmarked) [Product 133]")
62
>>> quantitative_readout("Cc1cc(OC[C@H]2CCCN(C(C)c3cc4c(cc3F)NCCO4)C2)cc(C)n1 (some centres unmarked) [Product 191]")
81
>>> quantitative_readout("Cc1cc(NCC2CCCN(C(C)c3cc4c(cc3F)OCCO4)C2)cc(C(F)(F)F)n1 (centres unmarked) [Product 99]")
65
>>> quantitative_readout("Cc1cc(C2CCCN(C(C)c3cnc4c(c3)OCCN4)C2)cc(C)n1 (centres unmarked) [Product 137]")
83
>>> quantitative_readout("Cc1cc(C[C@H]2CCCN(C(C)c3cnc4c(c3)OCCN4)C2)cc(C)n1 (single isomer, unassigned) [Product 52]")
92

Below: the item to evaluate.
Query: Given the molecule Cc1cc(C[C@H]2CCCN(C(C)c3ccc4c(n3)OCCO4)C2)cc(C(F)(F)F)n1 (mixture of isomers) [Product 69] , what is its reported Emax?
Response: 90
